# Target Or Test System: GDP-bound KRAS wild-type protein (Homo sapiens, UniProt P01116)
# Sequence (P01116 whole entry): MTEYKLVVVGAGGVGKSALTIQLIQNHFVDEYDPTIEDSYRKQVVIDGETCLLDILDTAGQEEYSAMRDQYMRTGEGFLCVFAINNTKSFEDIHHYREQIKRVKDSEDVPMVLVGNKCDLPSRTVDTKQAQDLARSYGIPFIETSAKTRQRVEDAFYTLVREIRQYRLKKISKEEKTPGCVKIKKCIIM
# Experiment: Binding to KRAS by surface plasmon resonance (SPR), Single Cycle Kinetics
# Assay Setup: SPR, Single Cycle Kinetics, GDP-bound KRAS wild-type protein; read-out: KRAS KD
Reported Metric: pKd
Reminder that pKd is minus the log10 of a molar concentration.

Check out these entries, answers already filled in.
# Compound, Reading
rows = [
    ("C#CC[C@H]1C(=O)N[C@@H]([C@@H](C)CC)C(=O)N(C)CC(=O)N(C)[C@H]2C/C=C\\CCN(C2=O)[C@@H](Cc2ccc(C(F)(F)F)cc2)C(=O)N(C)CC(=O)N[C@@H](CCc2cc(F)c(C(F)(F)F)c(F)c2)C(=O)N2C[C@H](OCC)C[C@H]2C(=O)NC2(CC(F)(F)C2)C(=O)N(C)[C@@H](C2CCCC2)C(=O)N(C)[C@H](C(=O)N(C)CCC)CC(=O)N1C", 9.96),
    ("CC[C@H](C)[C@@H]1NC(=O)[C@H](CC(C)C)N(C)C(=O)C[C@@H](C(=O)N2CCOCC2)N(C)C(=O)[C@H](C2CCCC2)N(C)C(=O)C2(CCC2)NC(=O)[C@@H]2C[C@@H](OCC3CCCC3)CN2C(=O)[C@H](CCc2cc(F)c(C(F)(F)F)c(F)c2)NC(=O)CN(C)C(=O)[C@H](Cc2ccc(C(F)(F)F)cc2)N2CCCC[C@@H](C2=O)N(C)C(=O)CN(C)C1=O [PP1015]", 8.30),
]

Next, consider the following compound.
// recorded pKd for CCO[C@@H]1C[C@H]2C(=O)NC3(CC(C)(C)C3)C(=O)N(C)[C@@H](C3CCCC3)C(=O)N(C)[C@H](C(=O)N3CCCC3)CC(=O)N(C)[C@@H](CC)C(=O)N[C@@H]([C@@H](C)CC)C(=O)N(C)CC(=O)N(C)[C@H]3C/C=C\CCN(C3=O)[C@@H](Cc3ccc(C(F)(F)F)cc3)C(=O)N(C)CC(=O)N[C@@H](CCc3cc(F)c(C(F)(F)F)c(F)c3)C(=O)N2C1 : 9.72
